Values compiled from ChEMBL document CHEMBL1201862.

# Test system: MDA-N
# PROTOCOL: NCI tumour cell line growth inhibition, 48 h
The source made the active and inactive calls. Rule as the data show it: active = GI50 up to about 1.1 µM and inactive = higher.
I'd be grateful if you could share measured GI50 for these entries.

Kindly indicate its recorded GI50. Item: CCN(CCO)CC1CCCC2CCCCC21 (stereo unspecified)
> 100 µM (inactive)

Kindly indicate its recorded GI50. Item: `CCN(CC)CCNC(=O)c1ccc(I)cc1`
> 100 µM (inactive)

Kindly indicate its recorded GI50. Item: O=C1CC(c2cccc(Cl)c2)Nc2ccc(N3CCCC3)cc21 (stereo unspecified)
0.00359 µM (active)

Kindly indicate its recorded GI50. Item: `O=C1NC(=O)C(C(c2ccc([N+](=O)[O-])cc2)C2C(=O)NC(=O)NC2=O)C(=O)N1`
> 100 µM (inactive)

Kindly indicate its recorded GI50. Item: `COc1cc(C(=O)Oc2ccc3c(c2)OCO3)cc(OC)c1OC`
> 100 µM (inactive)

Kindly indicate its recorded GI50. Item: COc1ccc(C(CC2(c3ccc(OC)cc3)SCCCS2)NC(C)=O)cc1 (stereo unspecified)
61 µM (inactive)

Kindly indicate its recorded GI50. Item: O=[N+]([O-])C1=Cc2cc(Cl)ccc2OC1c1cccc2ccccc12 (stereo unspecified)
1 µM (active)

Kindly indicate its recorded GI50. Item: `OCCn1cnc2c(SCc3ccccc3)ncnc21`
> 100 µM (inactive)

Kindly indicate its recorded GI50. Item: Cc1ccc(S(=O)(=O)N(CC(O)COc2ccccc2)c2ccc(F)cc2F)cc1 (stereo unspecified)
15.5 µM (inactive)

Kindly indicate its recorded GI50. Item: `O=c1cccc2n1CC1CNC[C@H]2C1`
> 100 µM (inactive)

Kindly indicate its recorded GI50. Item: COc1ccc(N2C(=O)C3c4[nH]c5cccc(C)c5c4C4CCC(C(C)(C)C)CC4C3C2=O)cc1 (stereo unspecified)
> 10 µM (inactive)

* * *

# System: Malme-3M
# PROTOCOL: NCI tumour cell line growth inhibition, 48 h
The source made the active and inactive calls. No stated cut-off is given here; in the data, active = GI50 up to about 1.1 µM and inactive = higher.
Please answer using one outcome listed in 1 (yes) = active, 0 (no) = inactive

How did this test come out for `O=NN(CCCl)C(=O)N[C@H]1CC[C@H](CC(=O)O)CC1` ?
0 (no)

How did this test come out for `Oc1ccccc1/C=C/c1csnn1` ?
0 (no)

How did this test come out for `Cc1nn(-c2ccccc2)c(C)c1/C=N/NC(=O)c1sc(=S)n(-c2ccc(Cl)cc2)c1N` ?
0 (no)

How did this test come out for c1ccc(CNC2CC(NCc3ccccn3)CC(NCc3ccccn3)C2)nc1 (stereo unspecified) ?
0 (no)

How did this test come out for `CCN(CCCl)c1cc(CN(C)C)cc(NC(=O)c2ccc(C(=O)Nc3cc(CN(C)C)cc(N(CC)CCCl)c3)cc2)c1` ?
1 (yes)

How did this test come out for `COc1cc(CNc2nc3ccccc3nc2-c2cccs2)cc(OC)c1OC` ?
0 (no)

How did this test come out for `N#CC(=S)Nc1cccc(Cl)c1` ?
0 (no)

How did this test come out for `Cc1ccnc(NS(=O)(=O)c2ccc(NC(=O)c3ccc4nc5ccccc5c(Nc5ccc(S(=O)(=O)Nc6nccc(C)n6)cc5)c4c3)cc2)n1` ?
0 (no)

How did this test come out for `COc1cc(/C=C\c2ccc(Cl)cc2)cc(OC)c1OC` ?
1 (yes)

How did this test come out for CC(C)(C)OC(=O)NCCCCC(N)NC(=O)c1ccccc1 (stereo unspecified) ?
0 (no)

How did this test come out for C/C=C/C=C\C(=O)C1c2cccc(O)c2C(=O)c2c(O)cc(C)cc21 (stereo unspecified) ?
0 (no)

How did this test come out for `Cc1c(C(=O)CC(=O)C(=O)Nc2ccc(Cl)c(Cl)c2)[n+]([O-])c2ccccc2[n+]1[O-]` ?
0 (no)

How did this test come out for `Nc1nc2c(c(-c3ccc(F)cc3)n1)COC/C2=C\c1ccc(F)cc1` ?
0 (no)

How did this test come out for `O=c1c(-c2cccc3ccccc23)c(-c2cccc3ccccc23)c1=O` ?
0 (no)

How did this test come out for O/N=C1/C(=C/c2ccc(Cl)c(Cl)c2)CCCC1C(NO)c1ccc(Cl)c(Cl)c1 (stereo unspecified) ?
0 (no)

How did this test come out for `O=c1/c(=C/c2cccc([N+](=O)[O-])c2)sc2nc3ccccc3n12` ?
0 (no)

How did this test come out for CC(C)(C)[Si](C)(C)OCC1OC(n2cc(I)c(N)nc2=O)C(O[Si](C)(C)C(C)(C)C)C1O[Si](C)(C)C(C)(C)C (stereo unspecified) ?
0 (no)

How did this test come out for `COc1cc(OC)c(C2(c3c(OC(C)C)c(=O)c3=O)SCCCS2)cc1OC` ?
0 (no)

How did this test come out for `COc1cc(/C=C2\Cc3ccccc3C2=O)cc(OC)c1OC` ?
0 (no)

How did this test come out for `N#Cc1nc(COCCOCc2ccccc2)oc1N` ?
0 (no)

How did this test come out for `COC(=O)c1nc2n(n1)-c1ccccc1C(=O)N(Cc1ccccc1)C2` ?
0 (no)
